system: SF-268 CNS; assay: NCI-60 one-dose screen, 48 h (100 = growth as untreated, 0 = no growth, -100 = all killed); conditions: 10 µM unless noted
About 83,000 compounds went through this panel and 20% of them were active in at least one assay; those are over-represented in the sample as a whole. The source made the active and inactive calls. Rule for the calls: active = growth percent below 10; inactive = the rest.
Hi there, I'd appreciate the recorded growth for every entry that follows.

Answered cases to consult:
> print(dat)
                                   molecule            result
1  Cn1ccnc1C(=O)/C=C/c1ccc(CNC(=O)c2ccc(S(F)(F)(F)(F)F)cc2)cc1    6.38% (active)
2  C#CCOc1ccc(/C=N\Nc2nc(-c3ccc(C)cc3)cs2)cc1OC   102% (inactive)
3  CC(=O)N(C)C1CCc2c(sc(NC(=O)c3ccc(C(C)(C)C)cc3)c2C(N)=O)C1 (centres undefined)    99% (inactive)
4  N#Cc1ccccc1Cn1c2nc(=N)c3ccccc3c-2nc2ccccc21  74.3% (inactive)

Each molecule below has a recorded value; state its growth.
1. CC/C(=C/c1cc(OC)ccc1O)c1ccc2cc(OC)ccc2[o+]1
2. CCNC(=O)N1CCc2cc(OC)c(OCCc3ccc(OC)nc3)cc2C1c1ccc(C)cc1C (centres undefined)
3. O=C(c1ccc(O)c(C(=O)N2Cc3ccc(OCCC[P+](c4ccccc4)(c4ccccc4)c4ccccc4)cc3C2)c1)N1Cc2cccc(F)c2C1
4. COc1ccc(NC(=O)CSc2nnc(-c3ccc4nc(-c5ccccc5)[nH]c4c3)o2)cc1
5. NC(N)=Nc1ccc(Oc2cccc(Nc3ccc(Cl)cc3)c2)cn1

Result:
61.6% (inactive)
20.7% (inactive)
92.7% (inactive)
101% (inactive)
41.3% (inactive)

---

test system: NCI-H322M lung; test: NCI-60 one-dose screen, 48 h; conditions: 10 µM unless noted
This is part of a sample that, as a whole, favours compounds with a hit. Of some 83,000 tested, about 20% had one in any assay. Active and inactive are the calls of the source. Rule for the calls: active = growth percent below 10; inactive = the rest.
Outcomes you can answer with include only these: YES = active, NO = inactive

> print(dat)
                                   compound  group.label
1  N#Cc1cccc(CN2CCc3ncn(Cc4ccc(Cl)cc4)c(=O)c3C2)c1           NO
2  N#Cc1c(-c2cccs2)cc(-c2cnccn2)nc1SCC(=O)c1ccc(F)cc1           NO
3  COc1ccc(-c2nc3cccc(O)c3c(=O)n2Cc2ccccc2)cc1COc1ccc(NC(C)=O)cc1           NO

Ask: What outcome does the record of this test show for Cc1cc(-c2ccc(Cl)cc2)n(Cc2nnc(SCC(=O)Nc3ccc(S(N)(=O)=O)cc3)n2C2CCCCC2)n1 ?
Result: NO

Ask: # iterate: Cc1cccc2c3c(sc12)C(c1ccc(F)cc1)C(C#N)=C(/N=C/c1ccc(Cl)cc1)O3 (stereo not given)
Result: NO

Ask: # iterate: O=C1[C@@H]2Cc3c([nH]c4ccccc34)[C@H](c3c(Cl)cccc3Cl)N2C(=O)CN1C1CCN(CC2CCCCC2)CC1
Result: NO

Ask: # iterate: C[C@H]1c2[nH]c3ccccc3c2C[C@H]2C(=O)N(CCCCCCC(=O)NO)CC(=O)N21
Result: NO

Ask: # iterate: O=C(NNc1nc2cc(F)ccc2n2c(CO)ccc12)c1cnccn1
Result: NO

Ask: # iterate: NS(=O)(=O)c1ccc(Nc2nc(SCc3ccccc3)nc3ccccc23)cc1
Result: NO

Ask: # iterate: Cc1cc2nc(C(Cl)Cl)nc(-c3cccs3)n2n1
Result: YES

Ask: # iterate: O=C(CN1CCN(c2cc(=O)[nH]c3ccc(F)cc23)CC1)Nc1ccc(Cl)cc1
Result: NO

Ask: # iterate: COc1cc(Cn2cc3c(c2)-c2onc(CN4CCCC4)c2CC3)cc(OC)c1OC
Result: NO

---

tested on: MCF7 breast; assay: NCI-60 one-dose screen, 48 h (100 = growth as untreated, 0 = no growth, -100 = all killed); conditions: 10 µM unless noted
The panel holds about 83,000 compounds, 20% with a hit somewhere; the sample as a whole holds those more often. Activity calls are given as the source filed them. Rule for the calls: active = growth percent below 10; inactive = the rest.
Hi there, I'd appreciate the recorded growth for every entry that follows.

Answered cases to consult:
> print(dat)
                                   molecule  system.tested  measurement.type            result
1  O=C(O)c1ccc(-n2cc(CNc3cc(F)c(F)c(F)c3)c(-c3cccc(F)c3)n2)cc1    MCF7 breast            growth    41% (inactive)
2  CNC(=O)c1cc(Oc2ccc3nc(NC(=O)c4cccc(OC(F)(F)F)c4)sc3c2)ccn1    MCF7 breast            growth  77.6% (inactive)
3  O=C1CCC(N2C(=O)c3ccc(NS(=O)(=O)c4ccccc4OC(F)(F)F)cc3C2=O)C(=O)N1 (stereo not given)    MCF7 breast            growth  44.5% (inactive)
4  CC(C)(C)n1nnnc1C(Nc1cccc2c1OCO2)c1cc2cccc3ccc4cccc1c4c32 (stereo not given)    MCF7 breast            growth  64.9% (inactive)

Consider the record given below.
Ask: // lookup growth | system=MCF7 breast | key= COc1ccc(Oc2ccc(/C=N/NC(=O)CSc3nc4ccccc4c(=O)n3-c3ccc(Cl)cc3)cc2)cc1
Result: 49.3% (inactive)

---

system: MCF7 breast; assay: NCI-60 one-dose screen, 48 h (100 = growth as untreated, 0 = no growth, -100 = all killed); settings: 10 µM unless noted
This is part of a sample that, as a whole, favours compounds with a hit. Of some 83,000 tested, about 20% had one in any assay.
# binarize growth: threshold 20% inclusive, high side YES, low side NO

> print(dat)
                                molecule  group.label
1  O=C(NNc1nc2cc(F)ccc2n2cccc12)c1ccncn1           NO

Ask: Does CCOC(=O)c1c(Nc2ccccc2)nn2c(-c3cccs3)ccnc12 have a reported growth of at least 20%?
Result: YES

Ask: # iterate: CCO/C=N/C1=C(C#N)C(c2ccc(F)cc2)c2sc3c(CC)cccc3c2O1 (centres undefined)
Result: NO

Ask: # iterate: Cc1nn(-c2ccccc2)c2ncnc(N/N=C/c3ccccc3O)c12
Result: NO

Ask: # iterate: COc1ccc(Cn2cc3c(c2-c2cc(OC)c(OC)c(OC)c2)CCc2c(CN4CCOCC4)noc2-3)cc1
Result: NO

Ask: # iterate: COc1ccc(/C(N)=N/C(N)=N/c2nc3ccccc3s2)cc1
Result: YES

---

test system: NCI-H460 lung; experiment: NCI-60 one-dose screen, 48 h; conditions: 10 µM unless noted
This is part of a sample that, as a whole, favours compounds with a hit. Of some 83,000 tested, about 20% had one in any assay. Active and inactive are the calls of the source. The calls were made as follows: active = growth percent below 10; inactive = the rest.
Outcomes you can answer with include only these: active, inactive

> print(dat)
                                    compound  group.label
 1  NC(=O)c1cccc(-n2ccc3cc(NC(=O)Nc4ccc(N5CCOCC5)c(C(F)(F)F)c4)ccc32)n1       active
 2  COc1cc(/C=C2\C(=O)Nc3ccccc32)ccc1OCc1ccc(Cl)cc1     inactive
 3  CC[C@@H](CO)Nc1ccc2ncc(C#Cc3cncc(C(=O)Nc4ccc(CN5CCN(C)CC5)c(C(F)(F)F)c4)c3)n2n1       active
 4  Cc1ccc(CSc2nc(-c3ccc(Cl)cc3)c(C#N)c(N3CCNCC3)n2)cc1     inactive
 5  COc1ccc(NC(=O)CSc2nnc(-c3ccc4nc(-c5ccc(OC)c(OC)c5)[nH]c4c3)o2)cc1OC     inactive
 6  CN1CCC(n2cc(Nc3ncc4c(=O)n(-c5c(Cl)cccc5Cl)cc(Br)c4n3)cn2)CC1       active
 7  NC(N)=Nc1ccc(Oc2cccc(NC(N)=Nc3ccc(Br)cc3)c2)cn1     inactive
 8  COc1ccccc1-n1cc(C#N)c(N)c1C(=O)c1ccc(C)cc1     inactive
 9  Cc1cccc2c3c(sc12)C(c1ccc(Cl)cc1)c1c(nc(CC(=O)Nc2ccccc2)[nH]c1=O)O3 (centres undefined)     inactive
10  O=C(CSc1nnc(-c2ccc(Cl)cc2)n1-c1ccccc1)Nc1ccc(Br)cc1       active

Ask: What outcome does the record of this test show for Nc1ncc(-c2ccc(NS(=O)(=O)c3ccc(Cl)c(Cl)c3)cc2)[nH]1 ?
Result: inactive

Ask: # iterate: NS(=O)(=O)c1ccc(Nc2nc(SCc3ccccc3)nc3ccccc23)cc1
Result: inactive

Ask: # iterate: O=S(=O)(Nc1ccc(I)cc1Cl)c1ccc(-c2cnc(C3CC3)o2)cc1
Result: inactive

Ask: # iterate: COc1cc(C2N=C(NNc3ccccc3)NC(C)=C2C(C)=O)ccc1O (centres undefined)
Result: inactive

Ask: # iterate: CC1=NC2=NN3C(=NN2C(c2ccccc2)=C1)N=NC(c1ccc(Br)cc1)=C3c1ccc(Br)cc1
Result: inactive

Ask: # iterate: Clc1nc2ccccc2nc1-c1nnc(C2CCCCC2)o1
Result: inactive

Ask: # iterate: C[C@H](CCC(=O)NCc1ccc(C(=O)Nc2ccccc2N)cc1)[C@H]1CC[C@H]2[C@@H]3[C@@H](O)C[C@@H]4C[C@H](O)CC[C@]4(C)[C@H]3CC[C@]12C
Result: inactive

Ask: # iterate: CCn1c2ccccc2c2cc(-n3nncc3-c3ccccc3)ccc21
Result: active

Ask: # iterate: O=c1c2ccccc2nc(COc2ccccc2)n1NS(=O)(=O)c1ccc(Cl)cc1
Result: inactive
